# assayed_target: CSNK1G2 (human) (UniProt P78368)
# Sequence (P78368 whole entry, looked up): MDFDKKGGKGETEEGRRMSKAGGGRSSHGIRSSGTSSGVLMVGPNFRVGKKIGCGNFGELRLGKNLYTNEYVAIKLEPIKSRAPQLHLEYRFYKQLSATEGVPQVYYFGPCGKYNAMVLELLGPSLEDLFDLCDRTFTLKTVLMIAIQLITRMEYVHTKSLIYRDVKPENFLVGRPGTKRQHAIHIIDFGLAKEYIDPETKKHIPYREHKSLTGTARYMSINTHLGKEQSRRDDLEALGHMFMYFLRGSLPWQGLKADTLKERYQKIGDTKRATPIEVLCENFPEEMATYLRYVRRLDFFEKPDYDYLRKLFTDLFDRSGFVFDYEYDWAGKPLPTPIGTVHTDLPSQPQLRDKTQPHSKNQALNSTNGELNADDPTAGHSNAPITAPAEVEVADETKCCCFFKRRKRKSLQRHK
# experiment_notes: radiometric filter-binding kinase assay, Kinase HotSpot
# condition_notes: compound 0.5 µM; ATP 10 µM

{"columns": ["sample_smiles", "residual activity / %"],
 "data": [
  ["N#C/C(=C1/Nc2ccccc2S1)c1ccnc(NCCc2cccnc2)n1", 87],
  ["COc1cc2c(cc1OC)-c1[nH]nc(Nc3cccc(F)c3)c1C2", 89.7],
  ["FC(F)(F)c1ccc(/C=C/c2nc(COc3ccc(CCCCn4ccnn4)cc3)co2)cc1", 96.7],
  ["Nc1ncnc2c1cnn2-c1ccccc1", 95.1]
]}

###

# assayed_target: UniProt:O43353
# Sequence (O43353 whole entry, looked up): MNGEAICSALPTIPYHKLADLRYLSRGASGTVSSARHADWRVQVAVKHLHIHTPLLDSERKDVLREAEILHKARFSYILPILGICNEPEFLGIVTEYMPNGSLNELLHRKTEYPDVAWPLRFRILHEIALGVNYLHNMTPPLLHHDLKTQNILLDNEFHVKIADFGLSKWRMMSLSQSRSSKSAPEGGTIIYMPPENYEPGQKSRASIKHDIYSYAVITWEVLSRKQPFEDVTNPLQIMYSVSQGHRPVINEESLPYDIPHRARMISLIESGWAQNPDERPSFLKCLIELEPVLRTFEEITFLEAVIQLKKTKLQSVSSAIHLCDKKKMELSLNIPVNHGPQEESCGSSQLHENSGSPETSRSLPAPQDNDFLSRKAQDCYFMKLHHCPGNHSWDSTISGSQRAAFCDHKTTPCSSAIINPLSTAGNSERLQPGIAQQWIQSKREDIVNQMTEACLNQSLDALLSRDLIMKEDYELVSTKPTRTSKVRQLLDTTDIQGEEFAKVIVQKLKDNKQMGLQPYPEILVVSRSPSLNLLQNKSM
# experiment_notes: radiometric filter-binding kinase assay, Kinase HotSpot
# condition_notes: compound 0.5 µM; ATP 10 µM
Response key: MET means residual activity >= 90%; NOT MET means residual activity < 90%.

{"columns": ["sample_smiles", "assigned_class"],
 "data": [
  ["Nc1ncnc2c1cnn2-c1ccccc1", "MET"],
  ["COc1cc2c(Nc3ccc(Br)cc3F)ncnc2cc1OCC1CCN(C)CC1", "NOT MET"],
  ["COc1cc2c(cc1OC)-c1[nH]nc(Nc3cccc(F)c3)c1C2", "NOT MET"],
  ["O=c1c2ccccc2[nH]c(=S)n1CCN1CCC(=C(c2ccc(F)cc2)c2ccc(F)cc2)CC1", "MET"],
  ["CCc1nc(-c2ccc(OC)cc2)[nH]c1-c1ccncc1", "MET"],
  ["FC(F)(F)c1ccc(/C=C/c2nc(COc3ccc(CCCCn4ccnn4)cc3)co2)cc1", "MET"],
  ["O=C(O)c1ccc2c3c1cccc3c(=O)n1c3ccccc3nc21", "NOT MET"]
]}

###

# assayed_target: TEK (human)
# experiment_notes: radiometric filter-binding kinase assay, Kinase HotSpot
# condition_notes: compound 0.5 µM; ATP 10 µM

{"columns": ["sample_smiles", "residual activity"],
 "data": [
  ["N#Cc1c(NC(=O)c2cccc3ccccc23)sc2c1CCCC2", "104%"],
  ["O=S(=O)(NCCNC/C=C/c1ccc(Br)cc1)c1cccc2cnccc12", "99.8%"],
  ["O=c1[nH]c2ccccc2n1C1CCN(Cc2ccc(-c3nc4cc5[nH]cnc5cc4nc3-c3ccccc3)cc2)CC1", "102%"],
  ["c1ccc(-c2cnc(Nc3ccc(OCCN4CCCC4)cc3)s2)cc1", "102%"],
  ["O=C1NC(=O)c2c1c1c3ccccc3[nH]c1c1[nH]c3cc(Br)ccc3c21", "93.8%"]
]}

###

# assayed_target: MELK (human) (UniProt Q14680)
# Sequence (Q14680 whole entry, looked up): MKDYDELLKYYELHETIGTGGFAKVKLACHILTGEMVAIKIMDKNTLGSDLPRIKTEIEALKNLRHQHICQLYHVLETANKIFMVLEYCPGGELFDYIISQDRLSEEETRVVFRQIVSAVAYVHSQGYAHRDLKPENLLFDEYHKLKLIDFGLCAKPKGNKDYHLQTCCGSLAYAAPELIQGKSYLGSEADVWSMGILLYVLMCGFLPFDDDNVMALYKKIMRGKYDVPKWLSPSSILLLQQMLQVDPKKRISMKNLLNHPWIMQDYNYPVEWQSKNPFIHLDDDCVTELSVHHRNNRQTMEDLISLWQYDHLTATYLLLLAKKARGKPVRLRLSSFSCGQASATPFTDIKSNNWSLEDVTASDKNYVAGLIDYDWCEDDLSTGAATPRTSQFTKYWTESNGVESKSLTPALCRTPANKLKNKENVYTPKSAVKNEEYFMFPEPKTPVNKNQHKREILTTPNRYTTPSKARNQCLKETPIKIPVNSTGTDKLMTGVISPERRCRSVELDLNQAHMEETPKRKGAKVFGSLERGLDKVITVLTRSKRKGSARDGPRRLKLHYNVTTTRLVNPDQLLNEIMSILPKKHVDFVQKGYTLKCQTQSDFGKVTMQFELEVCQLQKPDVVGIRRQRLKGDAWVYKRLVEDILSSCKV
# experiment_notes: radiometric filter-binding kinase assay, Kinase HotSpot
# condition_notes: compound 0.5 µM; ATP 10 µM

{"columns": ["sample_smiles", "residual activity / %"],
 "data": [
  ["O=c1cc(N2CCOCC2)oc2c(-c3ccccc3)cccc12", 91.3],
  ["N#Cc1c(NC(=O)c2cccc3ccccc23)sc2c1CCCC2", 83.3],
  ["O=C(O)c1ccc2c3c1cccc3c(=O)n1c3ccccc3nc21", 97],
  ["Cn1cc(/C=C2\\C(=O)Nc3ccc(S(N)(=O)=O)cc32)c2ccccc21", 63],
  ["O=c1[nH]c2ccccc2n1C1CCN(Cc2ccc(-c3nc4cc5[nH]cnc5cc4nc3-c3ccccc3)cc2)CC1", 110]
]}

###

# assayed_target: EPHA6 (human)
# experiment_notes: radiometric filter-binding kinase assay, Kinase HotSpot
# condition_notes: compound 0.5 µM; ATP 10 µM
Entries and their residual activity values follow.
quantity_kind: residual activity (%)

{"columns": ["sample_smiles", "quantitative_readout"],
 "data": [
  ["O=C(O)c1ccc2c3c1cccc3c(=O)n1c3ccccc3nc21", 105],
  ["Nc1ncnc2c1cnn2-c1ccccc1", 83.2],
  ["O=C1NC(=O)c2cc(Nc3ccc(F)cc3)c(Nc3ccc(F)cc3)cc21", 66.8],
  ["Cn1cc(/C=C2\\C(=O)Nc3ccc(S(N)(=O)=O)cc32)c2ccccc21", 30.2],
  ["CCc1nc(-c2ccc(OC)cc2)[nH]c1-c1ccncc1", 104],
  ["N#Cc1c(NC(=O)c2cccc3ccccc23)sc2c1CCCC2", 93.4],
  ["FC(F)(F)c1ccc(/C=C/c2nc(COc3ccc(CCCCn4ccnn4)cc3)co2)cc1", 99.3],
  ["O=c1cc(N2CCOCC2)oc2c(-c3ccccc3)cccc12", 87],
  ["N#C/C(=C1/Nc2ccccc2S1)c1ccnc(NCCc2cccnc2)n1", 87.1],
  ["O=c1c(-c2ccc(F)cc2)c(-c2ccncc2)[nH]n1-c1ccc(Cl)cc1", 57],
  ["COc1cc2c(Nc3ccc(Br)cc3F)ncnc2cc1OCC1CCN(C)CC1", 3.27]
]}

###

# assayed_target: PRKD2 (human)
# experiment_notes: radiometric filter-binding kinase assay, Kinase HotSpot
# condition_notes: compound 0.5 µM; ATP 10 µM
quantity_kind: residual activity (%)

{"columns": ["sample_smiles", "quantity_kind", "quantitative_readout"],
 "data": [
  ["FC(F)(F)c1ccc(/C=C/c2nc(COc3ccc(CCCCn4ccnn4)cc3)co2)cc1", "residual activity", 96.9],
  ["N#CCCc1ccc2c(c1)-c1[nH]c3ccc([N+](=O)[O-])cc3c1CC(=O)N2", "residual activity", 94.2],
  ["CCCCc1c(-c2ccc(O)cc2)[nH]c2nccnc12", "residual activity", 95.3],
  ["O=S(=O)(NCCNC/C=C/c1ccc(Br)cc1)c1cccc2cnccc12", "residual activity", 75.9]
]}

###

# assayed_target: UniProt P21709
# Sequence (P21709 whole entry, looked up): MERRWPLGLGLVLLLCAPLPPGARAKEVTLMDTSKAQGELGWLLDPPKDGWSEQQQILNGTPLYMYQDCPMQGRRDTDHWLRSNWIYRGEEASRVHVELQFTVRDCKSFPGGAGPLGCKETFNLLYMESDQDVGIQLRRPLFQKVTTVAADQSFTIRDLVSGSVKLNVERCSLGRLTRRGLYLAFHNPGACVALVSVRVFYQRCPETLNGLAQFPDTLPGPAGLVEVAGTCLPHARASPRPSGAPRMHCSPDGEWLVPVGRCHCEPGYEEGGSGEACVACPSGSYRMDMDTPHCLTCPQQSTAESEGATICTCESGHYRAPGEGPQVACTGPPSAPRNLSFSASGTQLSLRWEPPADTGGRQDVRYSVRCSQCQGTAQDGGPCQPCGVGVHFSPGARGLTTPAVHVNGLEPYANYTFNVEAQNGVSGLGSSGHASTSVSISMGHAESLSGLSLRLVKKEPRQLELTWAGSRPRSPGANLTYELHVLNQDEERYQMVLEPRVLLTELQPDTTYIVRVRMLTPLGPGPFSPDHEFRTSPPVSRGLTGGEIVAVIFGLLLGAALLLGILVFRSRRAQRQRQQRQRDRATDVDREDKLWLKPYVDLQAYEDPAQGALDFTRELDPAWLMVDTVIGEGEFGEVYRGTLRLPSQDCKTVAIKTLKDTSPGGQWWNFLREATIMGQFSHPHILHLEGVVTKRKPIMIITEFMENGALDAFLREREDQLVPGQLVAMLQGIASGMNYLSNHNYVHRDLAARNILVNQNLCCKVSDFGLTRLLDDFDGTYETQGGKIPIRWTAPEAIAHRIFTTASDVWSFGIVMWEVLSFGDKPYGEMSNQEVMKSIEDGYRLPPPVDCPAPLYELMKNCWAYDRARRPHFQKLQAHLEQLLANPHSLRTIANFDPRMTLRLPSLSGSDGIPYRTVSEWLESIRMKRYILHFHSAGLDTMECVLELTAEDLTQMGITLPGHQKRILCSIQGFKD
# experiment_notes: radiometric filter-binding kinase assay, Kinase HotSpot
# condition_notes: compound 0.5 µM; ATP 10 µM
quantity_kind: residual activity (%)

{"columns": ["sample_smiles", "quantity_kind", "quantitative_readout"],
 "data": [
  ["N#Cc1c(NC(=O)c2cccc3ccccc23)sc2c1CCCC2", "residual activity", 103],
  ["O=C(c1ccccc1)c1ccc(N2CCOCC2)cc1O", "residual activity", 89.1],
  ["O=S(=O)(NCCNC/C=C/c1ccc(Br)cc1)c1cccc2cnccc12", "residual activity", 83.7],
  ["FC(F)(F)c1ccc(/C=C/c2nc(COc3ccc(CCCCn4ccnn4)cc3)co2)cc1", "residual activity", 97.2],
  ["N/C(=N\\N=C/c1ccc(-c2cccc([N+](=O)[O-])c2)o1)N[N+](=O)[O-]", "residual activity", 88.9]
]}

###

Entries and their residual activity values follow.
# assayed_target: ERBB4 (human)
# experiment_notes: radiometric filter-binding kinase assay, Kinase HotSpot
# condition_notes: compound 0.5 µM; ATP 10 µM

{"columns": ["sample_smiles", "residual activity (%)"],
 "data": [
  ["O=c1c(-c2ccc(F)cc2)c(-c2ccncc2)[nH]n1-c1ccc(Cl)cc1", 73.2],
  ["N/C(=N\\N=C/c1ccc(-c2cccc([N+](=O)[O-])c2)o1)N[N+](=O)[O-]", 103],
  ["Cn1cc(/C=C2\\C(=O)Nc3ccc(S(N)(=O)=O)cc32)c2ccccc21", 81.3],
  ["COc1cc2c(cc1OC)-c1[nH]nc(Nc3cccc(F)c3)c1C2", 96.5],
  ["O=C1NC(=O)c2cc(Nc3ccc(F)cc3)c(Nc3ccc(F)cc3)cc21", 99.4],
  ["O=C1NC(=O)c2c1c1c3ccccc3[nH]c1c1[nH]c3cc(Br)ccc3c21", 101],
  ["COc1cc2c(Nc3ccc(Br)cc3F)ncnc2cc1OCC1CCN(C)CC1", 45.6],
  ["O=c1[nH]c2ccccc2n1C1CCN(Cc2ccc(-c3nc4cc5[nH]cnc5cc4nc3-c3ccccc3)cc2)CC1", 105],
  ["O=C(O)c1ccc2c3c1cccc3c(=O)n1c3ccccc3nc21", 105],
  ["N#C/C(=C1/Nc2ccccc2S1)c1ccnc(NCCc2cccnc2)n1", 83.1]
]}

###

# assayed_target: DYRK1A (human) (UniProt Q13627)
# experiment_notes: radiometric filter-binding kinase assay, Kinase HotSpot
# condition_notes: compound 0.5 µM; ATP 10 µM
Entries and their residual activity values follow.
quantity_kind: residual activity (%)

{"columns": ["sample_smiles", "quantitative_readout"],
 "data": [
  ["CCCCc1c(-c2ccc(O)cc2)[nH]c2nccnc12", 92.9],
  ["N#Cc1c(NC(=O)c2cccc3ccccc23)sc2c1CCCC2", 96.7],
  ["c1ccc(-c2cnc(Nc3ccc(OCCN4CCCC4)cc3)s2)cc1", 94.2],
  ["O=S(=O)(NCCNC/C=C/c1ccc(Br)cc1)c1cccc2cnccc12", 98.5],
  ["COc1cc2c(N3CCN(C(=O)Nc4ccc(OC(C)C)cc4)CC3)ncnc2cc1OCCCN1CCCCC1", 104],
  ["O=C1NC(=O)c2cc(Nc3ccc(F)cc3)c(Nc3ccc(F)cc3)cc21", 95.6],
  ["O=C(c1ccccc1)c1ccc(N2CCOCC2)cc1O", 101],
  ["O=c1c(-c2ccc(F)cc2)c(-c2ccncc2)[nH]n1-c1ccc(Cl)cc1", 89.8],
  ["FC(F)(F)c1ccc(/C=C/c2nc(COc3ccc(CCCCn4ccnn4)cc3)co2)cc1", 105],
  ["N#CCCc1ccc2c(c1)-c1[nH]c3ccc([N+](=O)[O-])cc3c1CC(=O)N2", 85.9]
]}
